Value source: patent US20130330324A1

- testedSystem: Human HER3, endogenous, on human cancer cell lines (human, UniProt P21860 20-1342)
- assayProtocol: cell-based or functional assay
readoutName: MCF7 pHER3 IC50 (pM)
Value expressed in pM; do not type the unit.

Sample answers from the record:
MOR12610 (antibody, human IgG1, kappa, V domains shown, tested as IgG) VH: QVQLVESGGGLVQPGGSLRLSCAASGFTFSSYAMSWVRQAPGKGLEWVSGTGPYGGTYYPDSVKGRFTISRDNSKNTLYLQMNSLRAEDTAVYYCARWGDEGFDIWGQGTLVTVSS VL: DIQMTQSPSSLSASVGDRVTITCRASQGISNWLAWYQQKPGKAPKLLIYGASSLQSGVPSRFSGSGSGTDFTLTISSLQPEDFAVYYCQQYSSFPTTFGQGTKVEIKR; 126
MOR12609 (antibody, human IgG1, kappa, V domains shown, tested as IgG) VH: QVQLVESGGGLVQPGGSLRLSCAASGFTFSSYAMSWVRQAPGKGLEWVSVINGLGYTTFYADSVKGRFTISRDNSKNTLYLQMNSLRAEDTAVYYCARWGDEGFDIWGQGTLVTVSS VL: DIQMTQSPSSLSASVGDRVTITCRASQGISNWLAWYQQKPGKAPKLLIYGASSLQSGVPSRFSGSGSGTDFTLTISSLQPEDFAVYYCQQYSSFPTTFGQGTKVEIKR; 5
MOR10703 (antibody, human IgG1, kappa, V domains shown, tested as IgG) VH: EVQLLESGGGLVQPGGSLRLSCAASGFTFSSYAMSWVRQAPGKGLEWVSAINSQGKSTYYADSVKGRFTISRDNSKNTLYLQMNSLRAEDTAVYYCARWGDEGFDIWGQGTLVTVSS VL: DIQMTQSPSSLSASVGDRVTITCRASQGISNWLAWYQQKPGKAPKLLIYGASSLQSGVPSRFSGSGSGTDFTLTISSLQPEDFATYYCQQYSSFPTTFGQGTKVEIKR; 333

Proceeding to the next binder to report its MCF7 pHER3 IC50.
Read the entry MOR09823 (antibody, human IgG1, kappa, V domains shown, tested as IgG) VH: QVQLVESGGGLVQPGGSLRLSCAASGFTFSSYAMSWVRQAPGKGLEWVSVTGAVGRTYYPDSVKGRFTISRDNSKNTLYLQMNSLRAEDTAVYYCARWGDEGFDIWGQGTLVTVSS VL: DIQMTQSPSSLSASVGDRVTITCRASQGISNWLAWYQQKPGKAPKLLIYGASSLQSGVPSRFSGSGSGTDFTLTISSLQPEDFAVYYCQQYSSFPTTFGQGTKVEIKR and write its reported MCF7 pHER3 IC50.
181
